Collected IC50 values appear next to each entry.
test system: PANC-1. epithelioid carcinoma of the pancreas cell line bearing KRas^G12D oncogenic mutation; test: Antiproliferative MTS assay, PANC-1 cells; format: cell-based; conditions: Homo sapiens, PANC-1, 72 h, compounds 1-23 and 47-52 median of experiments, 24-46 estimations and/or preliminary results, read-out: IC50 values: cell proliferation inhibition, Panc-1
Only the number, expressed in nM, is required.

See these solved cases before continuing.
| Compound | IC50 (nM) |
| --- | --- |
| CCNC(=O)N1CCc2cc(OC)c(OCCc3ccc(OC)c(N)c3)cc2C1c1ccc(N(C)C)cc1C (stereo not shown) | 1000 |
| COc1ccc(CCOc2cc3c(cc2OC)CCN(C(=O)NCc2cocn2)C3c2ccc(F)cc2C)cc1N (stereo not shown) | 400 |
| COc1ccc(CCOc2cc3c(cc2OC)CCN(C(=O)NCC(F)(F)F)C3c2ccc(C(F)(F)F)cc2C)cc1N (stereo not shown) | 500 |

Let us examine a further case.
Query :: What does the record list as IC50 for COc1cc(CCOc2cc3c(cc2OC)CCN(C(=O)NCC(F)(F)F)C3c2ccc(F)cc2C)ccc1N (stereo not shown) ?
Result :: 300

---

test system: PANC-1. epithelioid carcinoma of the pancreas cell line bearing KRas^G12D oncogenic mutation; assay: Antiproliferative MTS assay, PANC-1 cells; type: cell-based; conditions: Homo sapiens, PANC-1, 72 h, compounds 1-23 and 47-52 median of experiments, 24-46 estimations and/or preliminary results, read-out: IC50 values: cell proliferation inhibition, Panc-1
Measured endpoint: IC50 (µM)
Only the number, expressed in µM, is required.

Query :: What does the record list as IC50 for CCNC(=O)N1CCc2cc(OC)c(OCCc3ccc(OC)c(N)c3)cc2C1c1ccc(F)cc1C (stereo not shown) ?
Result :: 0.1

Query :: What does the record list as IC50 for COc1ccc(CCOc2cc3c(cc2OC)CCN(C(=O)NCc2cocn2)C3c2ccc(C)cc2C)cc1O (stereo not shown) ?
Result :: 0.3

---

test system: H358. non-small cell lung cancer line bearing KRas^G12C oncogenic mutation; assay: Antiproliferative MTS assay, H358 cells; type: cell-based; conditions: Homo sapiens, NCI-H358, 72 h, compounds 1-23, 47-52 and Reference Example 1 median of experiments, 24-46 estimations and/or preliminary results, read-out: IC50 values: cell proliferation inhibition, H358
Collected IC50 values appear next to each entry.
Only the number, expressed in µM, is required.

Query :: What does the record list as IC50 for COc1ccc(C2c3cc(OCCc4ccc(OC)c(N)c4)c(OC)cc3CCN2C(=O)NCc2cocn2)c(C)c1 (stereo not shown) ?
Result :: 0.3

Query :: What does the record list as IC50 for COc1ccc(CCOc2cc3c(cc2OC)CCN(C(=O)NCc2cocn2)C3c2ccc(C)cc2C)cc1N (stereo not shown) ?
Result :: 0.2

Query :: What does the record list as IC50 for COc1ccc(CCOc2cc3c(cc2OC)CCN(C(=O)N[C@H](C)C(F)(F)F)C3c2ccc(C)cc2C)cc1N (stereo partly shown) ?
Result :: 0.6

Query :: What does the record list as IC50 for COc1ccc(CCOc2cc3c(cc2OC)CCN(C(=O)N[C@@H](C)C(F)(F)F)C3c2ccc(C)cc2C)cc1N (stereo partly shown) ?
Result :: 0.1

Query :: What does the record list as IC50 for COc1ccc(CCOc2cc3c(cc2OC)CCN(C(=O)NCC(F)(F)F)C3c2ccc(C)cc2C)cc1N (stereo not shown) ?
Result :: 0.2

Query :: What does the record list as IC50 for COc1cc(CCOc2cc3c(cc2OC)CCN(C(=O)NCc2ccon2)C3c2ccc(Cl)cc2C)ccc1N (stereo not shown) ?
Result :: 0.3

Query :: What does the record list as IC50 for COc1cc(CCOc2cc3c(cc2OC)CCN(C(=O)NCc2cocn2)C3c2ccc(F)cc2C)ccc1N (stereo not shown) ?
Result :: 0.9
